Entries and their measured ED50 follow.
System: toxicity of yohimbine
experimental protocol: Potentialization of the toxicity of yohimbine
Assay type: in vivo, female mice, CDI (Charles Rivers, France)
protocol conditions: Mus musculus, po, 18 h, read-out: Potentialization of yohimbine, ED 50
Just the number in mg/kg, nothing appended.

Sample answers from the record:
compound: CCCN1CCN(c2nc(-c3ccccc3F)c3cc(Cl)ccc3n2)CC1 [41 128]
reported endpoint: ED50
unit annotation: mg/kg
result: 1.7
//
compound: Fc1ccccc1-c1nc(N2CCNCC2)nc2ccc(Cl)cc12 [41 125]
reported endpoint: ED50
unit annotation: mg/kg
result: 0.74
//
compound: CN1CCN(c2nc(-c3ccccc3Cl)c3cc(Cl)ccc3n2)CC1 [40 460]
reported endpoint: ED50
unit annotation: mg/kg
result: 5.4
//
compound: CN1CCN(c2nc(-c3ccccc3Cl)c3cc([N+](=O)[O-])ccc3n2)CC1 [40 498]
reported endpoint: ED50
unit annotation: mg/kg
result: 7.8

Record CN1CCN(c2nc(-c3ccccc3F)c3cc(Cl)ccc3n2)CC1 [40 468] has toxicity of yohimbine ED50 equal to 1.65
